The reported numbers originate from the supplement of paper PMC6757056.

B1: library; a variant is named by its letters at N, in order (parent)
chain: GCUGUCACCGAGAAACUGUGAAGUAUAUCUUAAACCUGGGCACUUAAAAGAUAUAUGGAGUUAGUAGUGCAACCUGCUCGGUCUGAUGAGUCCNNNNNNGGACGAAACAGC

Variants of: B1
Experiment: normalized RNA/DNA level without ligand (relative to sTRSVctl = 100) (log10 (% of sTRSVctl)); HEK293T; ligand: cyclic di-GMP (c-di-GMP-II aptamer); higher = less ribozyme self-cleavage, higher mRNA level
Details: reporter: mCherry (pCS4076), ligand present: no
metric: normalized RNA/DNA level without ligand (log10)
Numbers only.

Indicate the recorded normalized RNA/DNA level without ligand (log10) value for this variant: GCUGUCACCGAGAAACUGUGAAGUAUAUCUUAAACCUGGGCACUUAAAAGAUAUAUGGAGUUAGUAGUGCAACCUGCUCGGUCUGAUGAGUCCGCGGUCGGACGAAACAGC [GCGGUC] 1.29

Record normalized RNA/DNA level without ligand (log10) per entry; entries follow.
1. GCUGUCACCGAGAAACUGUGAAGUAUAUCUUAAACCUGGGCACUUAAAAGAUAUAUGGAGUUAGUAGUGCAACCUGCUCGGUCUGAUGAGUCCCCCUCCGGACGAAACAGC [CCCUCC]
2. GCUGUCACCGAGAAACUGUGAAGUAUAUCUUAAACCUGGGCACUUAAAAGAUAUAUGGAGUUAGUAGUGCAACCUGCUCGGUCUGAUGAGUCCCCUAUCGGACGAAACAGC [CCUAUC]
3. GCUGUCACCGAGAAACUGUGAAGUAUAUCUUAAACCUGGGCACUUAAAAGAUAUAUGGAGUUAGUAGUGCAACCUGCUCGGUCUGAUGAGUCCGUUCAUGGACGAAACAGC [GUUCAU]

1: 1.78; 2: 1.63; 3: 1.69
